- Protocol: qHTS of pediatric cancer cell lines to identify multiple opportunities for drug repurposing: Primary screen for OHS-50 cells (AID 1347103); also: nearly all actives have a fitted effect of over 40% in size
- Test Settings: OHS-50 osteosarcoma viability, CellTiter-Glo luminescence, 48 h; series mostly up to 57.3 µM
Results filed as inconclusive are left out. Calls of active or inactive are those of the source. Calls follow the shape of the dose curve; as a rule, active = well fitted cell-killing curve with a large enough effect; inconclusive = small, poorly fitted or top-dose-only effect; inactive = no such curve, though single readings can be large or run the other way.
Classes used: YES (active), NO (inactive)

>>> label("NC(=O)Nc1sc(-c2ccc(F)cc2)cc1C(N)=O")
"YES"
>>> label("CCNC(=O)Nc1ccc(-c2nc3c(c(N4CCOC[C@H]4C)n2)CCN(C2COC2)C3)cc1")
"YES"
>>> label("C=CC1=C(C(=O)O)N2C(=O)[C@@H](NC(=O)C(=NO)c3csc(N)n3)[C@H]2SC1")
"NO"
>>> label("OCCNC1CCCc2c1[nH]c1ccc(-c3ccccc3)cc21 (stereo not given)")
"YES"
>>> label("COc1cc(C[C@@H](CO)[C@H](CO)Cc2ccc(O)c(OC)c2)ccc1O")
"YES"
>>> label("CC(C)OC(=O)[C@H](C)N[P@](=O)(OC[C@H]1O[C@@H](n2ccc(=O)[nH]c2=O)[C@](C)(F)[C@H]1O)Oc1ccccc1")
"NO"
>>> label("C[C@H](CCC(=O)O)[C@H]1CCC2C3C[C@H](O)[C@@H]4C[C@H](O)CC[C@]4(C)C3CC[C@@]21C (stereo not given in full)")
"NO"
>>> label("CC(N[C@H]1CCCC[C@H]1NC(=O)c1ccc(Cl)cc1)c1cccc2ccccc12 (stereo not given in full)")
"YES"
>>> label("C[C@@]12C(=O)OC(=O)[C@@]1(C)C1CCC2O1")
"YES"
>>> label("CCOc1cc2ncc(C#N)c(Nc3ccc(OCc4ccccn4)c(Cl)c3)c2cc1NC(=O)C=CCN(C)C")
"YES"
>>> label("C[C@H](CCC(=O)O)[C@H]1CC[C@H]2[C@@H]3[C@H](O)C[C@@H]4C[C@H](O)CC[C@]4(C)[C@@H]3CC[C@]12C")
"NO"
>>> label("COc1cc(O)c2c(c1)C1OC1C[C@H](O)[C@H](O)C(=O)C=CC[C@H](C)OC2=O (stereo not given in full)")
"YES"
>>> label("Cc1nc(NC(=O)N2CCC[C@@H]2C(N)=O)sc1-c1ccnc(C(C)(C)C(F)(F)F)c1")
"YES"
>>> label("CCC[C@H]1C[C@H](C(=O)N[C@@H]([C@@H]2O[C@@H](SC)[C@@H](O)[C@@H](O)[C@@H]2O)[C@H](C)Cl)N(C)C1")
"NO"
>>> label("C=C1C(=O)O[C@H]2[C@@H]1CCC(C)=CCC[C@@]1(C)O[C@@H]21")
"YES"
